So I've got a bunch of compounds here, and I need their %Inh values.
Test system: EPHB3
Settings: concentration: 1 μM, replicates: in singlicate; n = 1;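 note: KINOMEscan kinase panel screen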
One number for each entry, in %.

>>> test_value("O=C(NC1CCN(c2ccnc(Nc3ccc(F)cc3)n2)C1)c1cc2ccccc2s1 (stereo not drawn) [GSK1379716]")
17

For each of the items listed, what is its %Inh?
1. O=C(Nc1n[nH]c2nc(-c3ccc(O)cc3)ccc12)C1CC1 [SB-710363]
2. Nc1n[nH]c2cnc(-c3ccccc3)cc12 [SB-642124]
3. CCn1c(-c2nonc2N)nc2c(C#CC(C)(C)O)nc(OC[C@H](N)c3ccccc3)cc21 [GSK943949]
4. COc1cccc(NC(=O)NC2CCN(c3ccnc(Nc4cc(OC)c(OC)c(OC)c4)n3)C2)c1 (stereo not drawn) [GSK1379763]
5. COc1cc(Nc2ncc3c(C)nc(-c4cc5ccccc5[nH]4)n3n2)cc(OC)c1OC [GW869516]

[0, 16, 0, 0, 0]

---

Test system: NLK
Conditions: concentration: 1 μM, replicates: in singlicate; n = 1
Label rule, in plain words: %Inh of 8% and up is Satisfied, under 8% is Not satisfied.

>>> category_label("Nc1n[nH]c2cnc(-c3ccccc3)cc12 [SB-642124]")
"Satisfied"
>>> category_label("COc1cc(Nc2nccc(N3CCC(NC(=O)c4cc5ccccc5s4)C3)n2)cc(OC)c1OC (stereo not shown) [GSK1379760]")
"Not satisfied"
>>> category_label("COc1ccc(Nc2nccc(NCCNC(=O)c3cc4ccccc4s3)n2)cc1 [GSK1379896]")
"Satisfied"
>>> category_label("O=C(Nc1cccc(-c2nn3ncccc3c2-c2ccnc(Nc3ccccc3)n2)c1)c1c(F)cccc1F [GSK198271]")
"Satisfied"
>>> category_label("c1ccc(-c2n[nH]cc2Nc2ccnc3ccccc23)nc1 [GW694077]")
"Satisfied"

Hi, just wondering whether C[C@@H]1CC[C@@H](C(=O)Nc2ccccc2)CN1c1cc(-c2ccc3c(N)n[nH]c3c2)nc(N)n1 [GSK2286062] shows %Inh of 8% or higher.
Satisfied

---

So I've got a bunch of molecules here, and I need their %Inh values.
Test system: PKN2
Conditions: concentration: 1 μM, replicates: in singlicate; n = 1
Write the numeric value and append its unit.

Take a look at these entries with their results.
>>> test_value("Cl.NC(=O)c1cccc(Nc2nccc(Nc3ccc(Oc4c(Cl)cccc4Cl)c(Cl)c3)n2)c1")
"0%"
>>> test_value("Nc1ncnc2c1nc(-c1ccccc1)n2-c1ccccc1")
"4%"
>>> test_value("CSc1cccc2c(-c3ccncn3)c(-c3ccc(F)cc3)nn12")
"0%"

As a next step, examine the molecule that follows.
Note to self: %Inh recorded for CN1CCN(CCCNc2nccc(-c3c(-c4ccc(F)cc4)nn4cc(C(F)(F)F)ccc34)n2)CC1 was 0%

---

Test system: CSF1R
Details: concentration: 1 μM, replicates: in singlicate; n = 1
readout.kind: %Inh (%)
One number for each entry, in %.

>>> test_value("CN(C)S(=O)(=O)c1cc(-c2ccc3nccc(-c4cccc(S(N)(=O)=O)c4)c3c2)cnc1N [GSK1669921]")
7
>>> test_value("Oc1cc(Nc2ccnc3cc(I)ccc23)ccc1F [GW552771]")
23
>>> test_value("O=c1[nH]cc(-c2ccc(N3CCOCC3)cc2)c2sc(-c3cn[nH]c3)cc12 [GSK2276055]")
33

For each of the items listed, what is its %Inh?
1. c1ccc(-c2n[nH]cc2Nc2ccnc3ccccc23)nc1 [GW694077]
2. Cn1cc(-c2ccc3c(c2)CCN3C(=O)Cc2cccc(Cl)c2)c2c(N)ncnc21 [GSK2606590]

[7, 97.6]

For each of the items listed, what is its %Inh?
1. COc1ccc(Nc2nccc(NCCNC(=O)c3cc4ccccc4s3)n2)cc1 [GSK1379896]
2. Cl.Cl.NCC(NC(=O)c1cc(-c2ccccc2)c(-c2ccnc3[nH]ccc23)s1)c1ccccc1 (centres unmarked) [GSK1321561]
3. CCS(=O)(=O)c1ccc(OC)c(Nc2nccc(-c3c(-c4cccc(NC(=O)c5c(F)cccc5F)c4)nn4ncccc34)n2)c1 [GSK326180]
4. c1ccc(Oc2ccc(Nc3ccnc4cc(-c5ccc(CNCCN6CCOCC6)o5)ccc34)cc2)nc1 [GW567145]
5. CC(C)(C)c1ccc2nccc(Nc3cccc(O)c3)c2c1 [GW856795]
6. Nc1n[nH]c2cnc(-c3ccccc3)cc12 [SB-642124]
7. CSc1cccc2c(-c3ccncn3)c(-c3ccc(F)cc3)nn12 [GW514786]

[0, 0, 24, 68, 12, 17, 0]

For each of the items listed, what is its %Inh?
1. Cc1ccc(C(=O)Nc2ccc(Nc3ccnc4cc(-c5nccs5)ccc34)cc2O)cc1.Cl [GW494702]
2. O=C(Nc1cccc(-c2nn3ccccc3c2-c2ccnc(Nc3cccc(C(F)(F)F)c3)n2)c1)c1c(F)cccc1F [GSK292658]
3. CCc1ccc(-c2ccc3c(c2)-c2c(cnn2C)S(=O)(=O)N3C)cc1
4. O=C(Nc1cccc(Oc2ccc3nc(NC(=O)C4CC4)cn3n2)c1)c1ccccc1C(F)(F)F
5. Cc1ccc(C)c(NC(=O)NC2CCN(c3ccnc(Nc4ccc(F)cc4)n3)C2)c1 (centres unmarked) [GSK1379720]

20
89
3
100
0

---

Tested on: TAK1
Construct: gene MAP3K7
Conditions: concentration: 1 μM, replicates: in singlicate; n = 1
So I've got a bunch of molecules here, and I need their %Inh values.

Take a look at these entries with their results.
>>> test_value("COc1cc(Nc2ncc3c(C)nc(-c4cc5ccccc5[nH]4)n3n2)cc(OC)c1OC")
"48%"
>>> test_value("Cc1ccc(C(=O)N2CC[C@@H](O)C2)cc1-n1c(C)cc(OCc2ccc(F)cc2F)c(Br)c1=O")
"0%"
>>> test_value("Cn1cc(-c2[nH]c3cc(NC(=O)[C@H](N)C4CCCCC4)cc4c3c2C=NNC4=O)cn1")
"52%"
>>> test_value("c1ccc(Oc2ccc(Nc3ccnc4cc(-c5ccc(CNCCN6CCOCC6)o5)ccc34)cc2)nc1")
"0%"

For each of the items listed, what is its %Inh?
1. Nc1n[nH]c2cnc(-c3ccccc3)cc12
2. O=C(Nc1cccc(-c2nn3ccccc3c2-c2ccnc(Nc3cccc(C(F)(F)F)c3)n2)c1)c1c(F)cccc1F
3. O=C(Nc1cccc(Oc2ccc3nc(NC(=O)C4CC4)cn3n2)c1)c1ccccc1C(F)(F)F
4. Cc1cccc(Nc2nc(N[C@H]3CCNC3)ncc2C(N)=O)c1.Cl

0%
0%
0%
90%

---

So I've got a bunch of compounds here, and I need their %Inh values.
Tested on: PRKR
Construct: gene EIF2AK2
Conditions: concentration: 1 μM, replicates: in singlicate; n = 1
Give bare numbers, in %.

Take a look at these entries with their results.
>>> test_value("COc1cccc(NC(=O)NC2CCN(c3ccnc(Nc4cc(OC)c(OC)c(OC)c4)n3)C2)c1 (stereo not shown)")
6
>>> test_value("Cn1cc(-c2[nH]c3cc(NC(=O)[C@H](N)C4CCCCC4)cc4c3c2C=NNC4=O)cn1")
67
>>> test_value("CN(c1ccc(NC(=O)Nc2cc(C(F)(F)F)ccc2F)cc1)c1ccnc(Nc2ccc(S(N)(=O)=O)cc2)n1")
3

For each of the items listed, what is its %Inh?
1. CCn1c(-c2nonc2N)nc2c(C#CC(C)(C)O)nc(OC[C@H](N)c3ccccc3)cc21
2. COc1cccc(C(=O)Nc2cccc(Oc3ccc4nc(NC(=O)C5CC5)cn4n3)c2)c1
3. Nc1ncc(-c2cccnc2)c2scc(-c3ccc4c(c3)CCN4C(=O)Cc3ccccc3)c12

0
0
5

---

So I've got a bunch of compounds here, and I need their %Inh values.
Tested on: TLK1
Settings: concentration: 1 μM, replicates: in singlicate; n = 1
One number for each entry, in %.

Take a look at these entries with their results.
>>> test_value("O=C(O)C(F)(F)F.O=C(O)C(F)(F)F.O=c1[nH]ccc2nc(N[C@@H]3CCCNC3)nc(Nc3ccc(S(=O)(=O)N4CCOCC4)cc3)c12 [GSK2177277]")
94.3
>>> test_value("COc1cccc(NC(=O)NC2CCN(c3ccnc(Nc4cc(OC)c(OC)c(OC)c4)n3)C2)c1 (centres unmarked) [GSK1379763]")
10
>>> test_value("Cc1ccc(C)c(NC(=O)NC2CCN(c3ccnc(Nc4ccc(F)cc4)n3)C2)c1 (centres unmarked) [GSK1379720]")
0

For each of the items listed, what is its %Inh?
1. CCCCc1nn2ncccc2c1-c1ccnc(Nc2ccc(N3CCN(C)CC3)cc2)n1 [GW684941]
2. COc1ccc(-c2coc3ccc(-c4nnc(SCc5ccc(OC)c(C(F)(F)F)c5)o4)cc23)cc1
3. COc1cccc(-c2ccc3c(NC(=O)C4CC4)n[nH]c3n2)c1 [SB-710903]

[0, 17, 3]

For each of the items listed, what is its %Inh?
1. COc1ccc(CNC(=O)NC2CCN(c3ccnc(Nc4ccc(F)cc4)n3)CC2)cc1 [GSK1379788]
2. O=C(Nc1cccc(-c2nn3ncccc3c2-c2ccnc(Nc3ccccc3)n2)c1)c1c(F)cccc1F [GSK198271]

1: 0; 2: 22
